- target system: Rvs167, P39743
- Sequence (P39743 419-482): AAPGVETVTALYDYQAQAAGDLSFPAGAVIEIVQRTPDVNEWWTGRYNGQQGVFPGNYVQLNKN
- assay info: SPOT array
- condition label: median of control spots 2707
quantity name: SPOT intensity

Here is how some binders turned out for SPOT intensity.
>>> df
            binder   quantity_name  readout_value
0  NHSRSLFSLPGNQQS  SPOT intensity              0
1  PSTMDFPKLPSFQNS  SPOT intensity              2
2  YRRKSIPFAPHQITA  SPOT intensity              0
3  PPPPPPPPPPPLPQS  SPOT intensity              0
4  GATNNAPTLPKRKNP  SPOT intensity           2550

A: RRRDFGAPANKRPRR
B: KRRAPPPVPKKPSSR
Data request: Please indicate which item has the smaller measured SPOT intensity: A versus B Answer with the label corresponding to your selection.
Data returned: A
(A: 0, B: 165)
